Each entry below carries its recorded KM, steady-state dephosphorylation of the pY peptide.
Target: T1, R47E PTP1B catalytic domain (amino acids 1-321) (human) (UniProt P18031)
T1 sequence: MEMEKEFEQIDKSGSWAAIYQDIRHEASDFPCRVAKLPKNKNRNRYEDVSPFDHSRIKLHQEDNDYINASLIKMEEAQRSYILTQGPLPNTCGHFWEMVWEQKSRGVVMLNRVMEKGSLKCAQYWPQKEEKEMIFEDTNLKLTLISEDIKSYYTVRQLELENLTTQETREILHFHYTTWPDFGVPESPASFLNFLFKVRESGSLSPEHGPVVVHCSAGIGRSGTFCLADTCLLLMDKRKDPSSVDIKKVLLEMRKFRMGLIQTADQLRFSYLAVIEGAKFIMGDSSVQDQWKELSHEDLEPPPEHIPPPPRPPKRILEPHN
Square brackets hold non-standard residues; d marks the D form. pY = N[C@@H](Cc1ccc(OP(=O)(O)O)cc1)C(=O)O
readout_label: KM, steady-state dephosphorylation of the pY peptide (µM)

binder | recorded_number
Ac-ASSDE[pY]AA-NH2 (SMILES CC(=O)N[C@@H](C)C(=O)N[C@@H](CO)C(=O)N[C@@H](CO)C(=O)N[C@@H](CC(=O)O)C(=O)N[C@@H](CCC(=O)O)C(=O)N[C@@H](Cc1ccc(OP(=O)(O)O)cc1)C(=O)N[C@@H](C)C(=O)N[C@@H](C)C(N)=O) [Ac-ASSDEpYAA-NH2] | 32
Ac-AA[pY]AADDA-NH2 (SMILES CC(=O)N[C@@H](C)C(=O)N[C@@H](C)C(=O)N[C@@H](Cc1ccc(OP(=O)(O)O)cc1)C(=O)N[C@@H](C)C(=O)N[C@@H](C)C(=O)N[C@@H](CC(=O)O)C(=O)N[C@@H](CC(=O)O)C(=O)N[C@@H](C)C(N)=O) [Ac-AApYAADDA-NH2] | 11
Ac-ARKRI[pY]AA-NH2 (SMILES CC[C@H](C)[C@H](NC(=O)[C@H](CCCNC(=N)N)NC(=O)[C@H](CCCCN)NC(=O)[C@H](CCCNC(=N)N)NC(=O)[C@H](C)NC(C)=O)C(=O)N[C@@H](Cc1ccc(OP(=O)(O)O)cc1)C(=O)N[C@@H](C)C(=O)N[C@@H](C)C(N)=O) [Ac-ARKRIpYAA-NH2] | 31
